The reader will find reported log10(IC50) values listed item by item below.
target: human MGAT2 (Homo sapiens (Human)); assay: Test Example 1: Test of MGAT2 inhibitory action (human MGAT2 enzyme fraction from Sf9 cells, free CoA detected by CPM fluorescence); format: biochemical; details: human MGAT2 enzyme fraction expressed in Sf9 insect cells, 0.5 μg/ml, 2-monooleoyl glycerol 0.78 μM, oleoyl-CoA 5.3 μM, room temperature 20 min, read-out: Activity Value [nM] (IC50, concentration at which 50% of produced free CoA was inhibited)
Base-10 log of IC50, unit nM.

CC(C)(C)c1ccc(NC(=O)N2Cc3ccc(S(=O)(=O)Nc4ccc(OCCOc5cccc(C(F)(F)F)c5)cc4F)cc3C2)cc1; 1.77
CC(C)(C)c1ccc(NC(=O)N2Cc3ccc(S(=O)(=O)Nc4ccc(OCCc5ccccc5)cc4F)cc3C2)cc1; 2.10
CCCCCCCOc1ccc(NS(=O)(=O)c2ccc3c(c2)CN(C(=O)Nc2ccc(C(C)(C)C)cc2)C3)c(F)c1; 1.45
CCCCCCCc1ccc(NS(=O)(=O)c2ccc3c(c2)CCN(CCCCCC)C3)c(F)c1; 2.34
CC(C)(C)c1ccc(NC(=O)N2Cc3ccc(S(=O)(=O)Nc4ccc(OCCCc5ccccc5)cc4F)cc3C2)cc1; 1.75
CC(C)(C)c1ccc(CCN2CCc3cc(S(=O)(=O)Nc4ccc(OCCC5CCCCC5)cc4F)ccc3C2)cc1; 1.88
CCCCCCCCN1CCc2cc(S(=O)(=O)Nc3ccc(OCCCCCC)cc3F)ccc2C1; 2.40
CC(C)(C)c1ccc(CN2CCc3cc(S(=O)(=O)Nc4ccc(OCCCc5ccccc5)cc4F)ccc3C2)cn1; 2.34
CC(C)(C)c1ccc(CCN2CCc3cc(S(=O)(=O)Nc4ccc(CCCC5CCCC5)cc4F)ccc3C2)cn1; 1.79
CCCCCCCCOc1ccc(NS(=O)(=O)c2ccc3c(c2)CN(C(=O)Nc2ccc(C(C)(C)C)cc2)C3)c(F)c1; 0.85

Would you mind telling me what log10(IC50) value was observed for CCCCCCOc1ccc(NS(=O)(=O)c2ccc3c(c2)CCN(CCc2ncc(C(C)(C)C)cn2)C3)c(F)c1 ?
2.21

And the next one, CCCCCCOc1ccc(NS(=O)(=O)c2ccc3c(c2)CCN(Cc2ccc(C(C)(C)C)nc2)C3)c(F)c1 ?
2.13

And the next one, Cc1nc(-c2ccc(C(F)(F)F)cc2)sc1CN1CCc2cc(S(=O)(=O)Nc3ccc(CCCC4CCCC4)cc3F)ccc2C1 ?
1.71

* * *

biological target: human MGAT2 (Homo sapiens (Human), UniProt Q3SYC2); experiment: Test Example 1: Test of MGAT2 inhibitory action (human MGAT2 enzyme fraction from Sf9 cells, free CoA detected by CPM fluorescence); type: biochemical; details: human MGAT2 enzyme fraction expressed in Sf9 insect cells, 0.5 μg/ml, 2-monooleoyl glycerol 0.78 μM, oleoyl-CoA 5.3 μM, room temperature 20 min, read-out: Activity Value [nM] (IC50, concentration at which 50% of produced free CoA was inhibited)
Sequence (Q3SYC2 whole entry): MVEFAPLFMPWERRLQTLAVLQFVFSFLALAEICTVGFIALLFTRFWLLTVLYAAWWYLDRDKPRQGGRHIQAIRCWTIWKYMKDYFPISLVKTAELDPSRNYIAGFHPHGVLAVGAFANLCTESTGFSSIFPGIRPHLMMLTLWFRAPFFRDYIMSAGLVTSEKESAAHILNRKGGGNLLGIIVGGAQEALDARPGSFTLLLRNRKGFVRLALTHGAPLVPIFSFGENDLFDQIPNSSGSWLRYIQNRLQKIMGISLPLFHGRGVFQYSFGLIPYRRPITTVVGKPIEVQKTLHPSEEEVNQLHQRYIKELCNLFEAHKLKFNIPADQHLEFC
The reader will find reported IC50 values listed item by item below.
Just so you know, I need the unit written after the number.

Guide cases for IC50, answers given:
CC(C)(C)c1ccc(NC(=O)N2Cc3ccc(S(=O)(=O)Nc4ccc(OCCCCOc5ccccc5)cc4F)cc3C2)cc1; 33 nM
CC(C)(C)c1ccc(NC(=O)N2Cc3ccc(S(=O)(=O)Nc4ccc(OCCCOc5ccccc5)cc4F)cc3C2)cc1; 92 nM

API: the following record is the query input.
Would you mind telling me what IC50 value was observed for CC(C)(C)c1ccc(CCN2CCc3cc(S(=O)(=O)Nc4ccc(CCCC5CCOCC5)cc4F)ccc3C2)cc1 ?
24 nM

FYI, the data here is from patent US9035059B2.
